Values were extracted from the supplement of paper PMC7877785.

Test: self-splicing fitness, log relative to wild type (ln ratio); higher = more splicing; Tetrahymena group I intron in knt gene, E. coli kanamycin selection, DiMSum; sequences stand for … in CUCUCU…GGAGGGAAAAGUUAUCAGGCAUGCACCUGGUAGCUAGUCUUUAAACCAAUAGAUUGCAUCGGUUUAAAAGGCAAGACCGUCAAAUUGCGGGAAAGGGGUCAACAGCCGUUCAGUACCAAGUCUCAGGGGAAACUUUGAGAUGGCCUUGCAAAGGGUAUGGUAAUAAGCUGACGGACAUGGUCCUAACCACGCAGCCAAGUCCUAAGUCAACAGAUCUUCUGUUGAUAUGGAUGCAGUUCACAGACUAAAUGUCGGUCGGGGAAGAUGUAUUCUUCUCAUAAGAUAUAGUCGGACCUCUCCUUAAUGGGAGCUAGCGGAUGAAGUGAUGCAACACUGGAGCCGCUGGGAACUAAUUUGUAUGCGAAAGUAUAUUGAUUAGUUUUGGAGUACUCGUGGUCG;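 note: selection with 25 µg/mL kanamycin versus none on LB agar overnight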
Settings: 37 °C
Each item that follows carries a reported self-splicing fitness (ln).
The reply should be a number, written without any unit.

Some sequences with recorded self-splicing fitness (ln):
# ordered.residues, self-splicing fitness (ln)
data = [
    ("GAUAAGCAAUAUUACGCUAC", -2.31),
    ("CGACAGCAAUAUUACGGCCC", -0.549),
    ("AACCAGCAAUAUUACGGCCU", -0.853),
    ("AGACAGCAAUAUUACGAGUU", -1.14),
    ("CGAAAGCAAUAUUACGCCUU", -1.11),
    ("ACAAAGCAAUAUUACGCUCU", -0.102),
    ("GGCUAGCAAUAUUACGAAUC", 0.239),
    ("ACAAAGCAAUAUUACGCAUA", -0.921),
]

(Q) Which self-splicing fitness (ln) reading was recorded for the sequence UGAUAGCAAUAUUACGUCAA ?
(A) -0.767

(Q) Given the entry GAUGAGCAAUAUUACGGGGG , report its measured self-splicing fitness (ln).
(A) -1.44
